# assay details: clinical
# experimental parameters: human, in vivo
value kind: concentration at 16 h

Q: Give the reported concentration at 16 h for this compound. C[C@H]1O[C@@H](O[C@H]2[C@@H](O)C[C@H](O[C@H]3[C@@H](O)C[C@H](O[C@H]4CC[C@@]5(C)[C@H](CC[C@@H]6[C@@H]5C[C@@H](O)[C@]5(C)[C@@H](C7=CC(=O)OC7)CC[C@]65O)C4)O[C@@H]3C)O[C@@H]2C)C[C@H](O)[C@@H]1O
Result: 0.383 ng/mL

---

# assay details: clinical
# experimental parameters: human, in vivo, MRT, serum tigecycline, Mean ± SD
value kind: MRT (h)
Numeric only. Scale: h

Q: Answer with reported MRT of CN(C)c1cc(NC(=O)CNC(C)(C)C)c(O)c2c1C[C@H]1C[C@H]3[C@H](N(C)C)C(O)=C(C(N)=O)C(=O)[C@@]3(O)C(O)=C1C2=O
Result: 30

---

# assay details: clinical
# experimental parameters: human, in vivo
# Method: One (1) hour after a medium-fat meal, and after a predose 7-mL blood sample for a baseline tigecycline PK analysis, each subject received a single 100-mg dose of tigecycline. […] Serum tigecycline samples were analyzed by a validated liquid chromatography/tandem mass spectroscopy (LC/MS/MS) method. Tigecycline peak serum concentration (Cmax) and time to peak concentration (tmax) were reported from the observed data. […] The half-life (t1/2) was calculated as 0.693/λz. […]
value kind: clearance (mL/min/kg)
Could you give me the number in mL/min/kg? Just the number is fine.

Q: Give the measured clearance for CN(C)c1cc(NC(=O)CNC(C)(C)C)c(O)c2c1C[C@H]1C[C@H]3[C@H](N(C)C)C(O)=C(C(N)=O)C(=O)[C@@]3(O)C(O)=C1C2=O
Result: 3.7

---

# assay details: clinical
# experimental parameters: human, in vivo
value kind: concentration at 6 h (ng/mL)
The response must be a number in ng/mL with no trailing unit.

Q: Give the reported value of concentration at 6 h for this record: C[C@H]1O[C@@H](O[C@H]2[C@@H](O)C[C@H](O[C@H]3[C@@H](O)C[C@H](O[C@H]4CC[C@@]5(C)[C@H](CC[C@@H]6[C@@H]5C[C@@H](O)[C@]5(C)[C@@H](C7=CC(=O)OC7)CC[C@]65O)C4)O[C@@H]3C)O[C@@H]2C)C[C@H](O)[C@@H]1O [Digoxin]
Result: 0.517

---

# assay details: clinical
# experimental parameters: human, in vivo
value kind: concentration at 2 h (ng/mL)
The response must be a number in ng/mL with no trailing unit.

Q: Respond only with concentration at 2 h recorded for C[C@H]1O[C@@H](O[C@H]2[C@@H](O)C[C@H](O[C@H]3[C@@H](O)C[C@H](O[C@H]4CC[C@@]5(C)[C@H](CC[C@@H]6[C@@H]5C[C@@H](O)[C@]5(C)[C@@H](C7=CC(=O)OC7)CC[C@]65O)C4)O[C@@H]3C)O[C@@H]2C)C[C@H](O)[C@@H]1O
Result: 0.966

---

# assay details: clinical
# experimental parameters: human, in vivo, AUC0-12 h, serum tigecycline, Mean ± SD
value kind: AUC(0-t) (ng·h/mL)
Write down the numeric answer in ng·h/mL and omit the unit.

Q: Could you please provide reported AUC(0-t) for CN(C)c1cc(NC(=O)CNC(C)(C)C)c(O)c2c1C[C@H]1C[C@H]3[C@H](N(C)C)C(O)=C(C(N)=O)C(=O)[C@@]3(O)C(O)=C1C2=O ? Thanks!
Result: 2480
